# Subject Of Test: bacterial PDF (peptide deformylase), enzyme from E. coli (Escherichia coli)
# Sequence (P0A6K3 whole entry): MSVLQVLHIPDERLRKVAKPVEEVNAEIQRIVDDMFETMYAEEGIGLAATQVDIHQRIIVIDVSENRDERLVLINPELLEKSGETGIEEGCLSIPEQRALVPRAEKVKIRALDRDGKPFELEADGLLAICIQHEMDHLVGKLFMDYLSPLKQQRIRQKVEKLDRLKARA
# Test Method Notes: Bacterial peptide deformylase (PDF) assay, enzyme from E. coli
# Assay type: biochemical
Would you kindly list IC50 for each of these compounds?
A number alone suffices; assume µM.

[Q] Recorded IC50 of CCN1CC(CC(=O)NO)S(=O)(=O)c2ccc(C(=O)NCc3ccccc3OC)cc21 (stereo not drawn) , please.
[A] 1.5

[Q] Could you do the same for CCN1CC(CC(=O)NO)S(=O)(=O)c2ccc(C(=O)NCc3cccc(OC)c3)cc21 (stereo not drawn) , please?
[A] 1

[Q] Next: CCN1CC(CC(=O)NO)S(=O)(=O)c2ccc(C(=O)NCc3ccc([N+](=O)[O-])cc3)cc21 (stereo not drawn)
[A] 1.2

[Q] Now the same for O=C(CC1CNc2ccccc2S1)NO (stereo not drawn)
[A] 56.7

[Q] // same read-out, input: CCN1CC(CC(=O)NO)S(=O)(=O)c2ccc(C(=O)NCc3ccc(Br)cc3)cc21 (stereo not drawn)
[A] 1.5

[Q] Note, next up: CCN1CC(CC(=O)NO)S(=O)(=O)c2ccc(C(=O)NCc3ccccc3)cc21 (stereo not drawn)
[A] 17.6

[Q] And for CCN1CC(CC(=O)NO)S(=O)(=O)c2ccc(C(=O)NCc3cccc(F)c3)cc21 (stereo not drawn) ?
[A] 11.7

[Q] Query CCN1CC(CC(=O)NO)S(=O)(=O)c2ccccc21 (stereo not drawn) next
[A] 1.4

[Q] Then what about the compound CCN1CC(CC(=O)NO)S(=O)(=O)c2ccc(C(=O)NCc3ccc(OC)cc3)cc21 (stereo not drawn) ?
[A] 4.9

[Q] // repeat for CCN1CC(CC(=O)NO)S(=O)(=O)c2ccc(C(=O)NCc3ccc(N(C)C)cc3)cc21 (stereo not drawn) and report
[A] 9.3

[Q] Query CCN1CC(CC(=O)NO)S(=O)(=O)c2ccc(C(=O)NCc3ccccc3Br)cc21 (stereo not drawn) next
[A] 20

[Q] What would you report for CCCCN1CC(CC(=O)NO)Sc2ccccc21 (stereo not drawn) ?
[A] 22

[Q] Also CCN1CC(CC(=O)NO)S(=O)(=O)c2ccc(C(=O)Nc3cc[nH]n3)cc21 (stereo not drawn) ?
[A] 11.5

[Q] Subsequent entry: CCN1CC(CC(=O)NO)S(=O)(=O)c2ccc(C(=O)Nc3nccs3)cc21 (stereo not drawn)
[A] 12.3

[Q] Another compound: CCN1CC(CC(=O)NO)S(=O)(=O)c2ccc(C(=O)Nc3cc(-c4cccs4)n[nH]3)cc21 (stereo not drawn)
[A] 0.9

[Q] Now give it for CCN1CC(CC(=O)NO)S(=O)(=O)c2ccc(C(=O)NCc3cccs3)cc21 (stereo not drawn) too.
[A] 9.5

[Q] Ok, now CCN1CC(CC(=O)NO)S(=O)(=O)c2ccc(C(=O)NCc3ccc(F)cc3)cc21 (stereo not drawn)
[A] 10.5

---

# Subject Of Test: bacterial PDF (peptide deformylase), enzyme from E. coli (Escherichia coli)
# Test Method Notes: Bacterial peptide deformylase (PDF) assay, enzyme from E. coli
# Format: biochemical
pIC50: −log10 of the molar value.
Each entry gets False if its pIC50 stays under 5, and True if its pIC50 is 5 or above.

[Q] Given the entry O=C(CC1CN(CC2CC2)c2ccccc2S1(=O)=O)NO (stereo not drawn) [Example 35] , answer whether its pIC50 meets or surpasses 5.
[A] True

[Q] // repeat for O=C(CC1CN(CC2CCCCC2)c2ccccc2S1(=O)=O)NO (stereo not drawn) [Example 38] and report
[A] False

[Q] Queued: CCN1CC(CC(=O)NO)S(=O)(=O)c2ccc(C(=O)NCc3cccc(Br)c3)cc21 (stereo not drawn) [Example 16]
[A] True

[Q] Request: CCN1CC(CC(=O)NO)S(=O)(=O)c2ccc(C(=O)NCc3cccc(C(F)(F)F)c3)cc21 (stereo not drawn) [Example 24]
[A] True

[Q] Entry O=C(CC1CN(Cc2cccc(F)c2)c2ccccc2S1(=O)=O)NO (stereo not drawn) [Example 10] please
[A] False

[Q] Same question, CCN1CC(CC(=O)NO)S(=O)(=O)c2ccc(C(=O)NCc3cccc([N+](=O)[O-])c3)cc21 (stereo not drawn) [Example 19] this time
[A] True
